Assay target: huPA-H99Y (full length human urokinase-type plasminogen activator with H99Y) (human)
Test: enzyme inhibition (steady state, chromogenic substrate S-2444); about 2 nM enzyme (purified or conditioned medium of transfected cells) pre-incubated 15 min with varied peptide in HBS (10 mM HEPES pH 7.4, 140 mM NaCl) with 0.1% BSA at 37°C; substrate about KM; fit for competitive inhibition; highest peptide concentration 400 µM
Bridge positions count the residues as written; N and C are the ends. Square brackets hold non-standard residues; d marks the D form. Ends that are not written are not given here. Ala(1-amidino-4-piperidyl) = N=C(N)N1CCC(C[C@H](N)C(=O)O)CC1
Metric: Ki (nM)
Value expressed in nM; do not type the unit.

Consider the binder CPAYS[Ala(1-amidino-4-piperidyl)]YLAC (disulfide 1-10; not fully specified) [Mupain-1-16 D9A] . State its measured Ki.
309
